# Test system: HCV
# measurement-description: Anti-HCV effect in vitro, intracellular HCV RNA by real-time RT-PCR in infected Huh7.5 cells
# Format: cell-based, hepatitis C virus
# reported-conditions: Huh7.5 cells
Exercise: state measured SI (ratio of CC50 to EC50) for each of the molecules provided.

molecule | target-or-system | SI (ratio of CC50 to EC50)
OCCCCC1C2CCCN3CCCC(CN1Cc1cccnc1)C23 (stereo not drawn) [7f, 12N-(Pyridin-3-ylmethyl)matrinol] | HCV | > 114
Cl.Cl.OCCCC[C@@H]1[C@H]2CCCN3CCC[C@@H](CN1Cc1ccncc1)[C@@H]23 | HCV | > 55.4

Now look at this entry.
Per the record, Cl.Cl.OCCCCC1C2CCCN3CCCC(CN1Cc1ccc(Cl)cn1)C23 (stereo not drawn) has SI (ratio of CC50 to EC50) of > 45.9

###

# System: HCV
# measurement-description: Anti-HCV effect in vitro, intracellular HCV RNA by real-time RT-PCR in infected Huh7.5 cells
# Type: cell-based, hepatitis C virus
# reported-conditions: HCV-infected Huh7.5 cells, 72 h, real-time RT-PCR; read-out: EC50 (concentration required to inhibit HCV growth by 50%)
In plain terms, low EC50, meaning strictly below 3000 nM, gives label 1, and everything else gives label 0.

A selection of reference data follows.
compound | classification
CCCCCCCCN1C[C@@H]2CCCN3CCC[C@@H]([C@H]23)[C@H]1CCCCO | label 1
COc1ccc(CN2CC3CCCN4CCCC(C2CCCCO)C34)cc1.Cl.Cl (stereo not drawn) | label 1
COc1ccc(CN2C[C@@H]3CCCN4CCC[C@@H]([C@H]34)[C@H]2CCCC(C)(C)O)cc1.Cl.Cl [10a] | label 0

In the record for `C=Cc1ccc(CN2C[C@@H]3CCCN4CCC[C@@H]([C@H]34)[C@H]2CCCCO)cc1.Cl.Cl` , is EC50 less than 3000 nM?
label 0

In the record for C=Cc1ccc(CN2C[C@@H]3CCCN4CCC[C@@H]([C@H]34)[C@H]2CCCC(=O)OC)cc1 [6c, Methyl 12N-(4-vinylbenzyl)matrinate] , is EC50 less than 3000 nM?
label 1

In the record for `CCCN1C[C@@H]2CCCN3CCC[C@@H]([C@H]23)[C@H]1CCCCO` , is EC50 less than 3000 nM?
label 0

###

Exercise: state measured pEC50 for each of the compounds provided.
# Test system: HCV
# measurement-description: Anti-HCV effect in vitro, intracellular HCV RNA by real-time RT-PCR in infected Huh7.5 cells
# Format: cell-based, hepatitis C virus
# reported-conditions: HCV-infected Huh7.5 cells, 72 h, real-time RT-PCR; read-out: EC50 (concentration required to inhibit HCV growth by 50%)
Numbers only, as −log10 of the molar value.

// solved cases for pEC50 follow
compound | pEC50
COc1ccc(CN2CC3CCCN4CCCC(C2/C=C\CCO)C34)cc1.Cl.Cl (stereo not drawn) [14a] | 5.06
CC(C)(O)CCCC1C2CCCN3CCCC(CN1Cc1ccc(F)cc1F)C23.Cl.Cl (stereo not drawn) [10d] | 5.18
Cc1ccc(CN2CC3CCCN4CCCC(C2CCCC(C)(C)O)C34)cc1.Cl.Cl (stereo not drawn) [10b] | 6.09

Now look at this entry.
Item COC(=O)CCC[C@@H]1[C@H]2CCCN3CCC[C@@H](CN1Cc1ccc(F)cc1)[C@@H]23 [compound 2] ; assay system HCV; pEC50 reported as 5.68
